The values you see were collected from the supplement of paper PMC12042874.

protocol.notes: amyloid nucleation score (Sup35N fusion, yeast selection) (log enrichment); library NNK2; higher = more nucleation; inactive = no reads after selection;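 further: zero at mode of non-aggregating sequences after 7 days selection at 30°C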
Binary classification by amyloid nucleation score, with -0.2 as an inclusive lower bound for Y; all other cases are N.

{"input.sequence": "CNNSVGVFYKGLTELLCLRS", "category": "N"}
{"input.sequence": "GSDFQFRSSATVLSAVEFLL", "category": "N"}
{"input.sequence": "ELSLTCNGDQLIGMKGGADK", "category": "Y"}
{"input.sequence": "IDYVFAAGDKWWVSVLL", "category": "N"}
{"input.sequence": "SVYEIYWRVT", "category": "N"}
{"input.sequence": "DISVRTMFVS", "category": "N"}
{"input.sequence": "LTVLFLYLSLRCHSYNPAHA", "category": "N"}
{"input.sequence": "QSAVICVGRCGNCHPPTEL", "category": "Y"}

In: Confirm if amyloid nucleation score reported for the sequence "GFEQRGIRVMFVPYDINFSV" is -0.2 or above.
Out: Y

In: Quick check: does "TQSIALINTRVELTVDEFSF" have amyloid nucleation score greater than or equal to -0.2?
Out: Y

In: Is the recorded value of amyloid nucleation score equal to or greater than -0.2 for this sequence? "RSLFKLTENCCIIVSWASDN"
Out: Y
